Target: T1, Topo IIC (Giardia lamblia, UniProt E2RU90 489-1491)
T1 sequence: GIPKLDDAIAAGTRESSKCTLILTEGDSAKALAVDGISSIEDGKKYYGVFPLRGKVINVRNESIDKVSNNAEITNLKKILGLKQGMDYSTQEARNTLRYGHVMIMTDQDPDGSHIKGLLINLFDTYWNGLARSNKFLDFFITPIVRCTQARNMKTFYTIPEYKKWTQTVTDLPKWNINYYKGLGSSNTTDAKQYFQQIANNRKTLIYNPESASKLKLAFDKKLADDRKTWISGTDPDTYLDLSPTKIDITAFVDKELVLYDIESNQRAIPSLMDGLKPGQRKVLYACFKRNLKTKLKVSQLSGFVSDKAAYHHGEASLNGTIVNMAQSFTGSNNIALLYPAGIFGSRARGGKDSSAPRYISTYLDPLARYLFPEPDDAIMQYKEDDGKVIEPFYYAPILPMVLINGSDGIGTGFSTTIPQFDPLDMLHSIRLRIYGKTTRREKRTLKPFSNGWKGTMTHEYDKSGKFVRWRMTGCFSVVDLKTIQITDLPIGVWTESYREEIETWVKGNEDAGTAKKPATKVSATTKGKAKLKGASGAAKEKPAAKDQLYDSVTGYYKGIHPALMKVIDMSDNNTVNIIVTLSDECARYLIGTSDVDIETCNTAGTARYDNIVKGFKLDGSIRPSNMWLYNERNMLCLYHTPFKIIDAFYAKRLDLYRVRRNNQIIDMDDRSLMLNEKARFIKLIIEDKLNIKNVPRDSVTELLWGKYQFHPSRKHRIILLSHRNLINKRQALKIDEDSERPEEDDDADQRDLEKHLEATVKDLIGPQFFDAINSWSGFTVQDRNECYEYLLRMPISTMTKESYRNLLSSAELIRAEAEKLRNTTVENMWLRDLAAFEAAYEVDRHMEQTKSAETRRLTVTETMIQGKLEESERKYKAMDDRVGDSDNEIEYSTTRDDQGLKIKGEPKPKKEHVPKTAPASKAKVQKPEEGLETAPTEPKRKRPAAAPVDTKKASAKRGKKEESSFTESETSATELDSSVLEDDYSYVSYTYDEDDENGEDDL
Experiment: competition; 200-fold excess vs labeled IIBS; EMSA: 0.02 pmol 5'-labeled probe, 5 ng protein, 20 ul, 0.5 ug poly(dI-dC), 15 min, room temperature, 6% acrylamide gel; buffer, salt and pH only by citation
Settings: protein: recombinant; tags: C-terminal V5-His; chain copies: 2
Metric Name: binding result

In [3]: df
Out[3]:
                                     binder     metric_name  obs_value
0  ran-51/-20 (dsDNA) DNA 1: TAAAATAAATTAAATCGAAATTAAAACTTTAA DNA 2: TTAAAGTTTTAATTTCGATTTAATTTATTTTA  binding result      binds
1  poly(A) (dsDNA) DNA 1: AAAAAAAAAAAAAAAAAAAAAAA DNA 2: TTTTTTTTTTTTTTTTTTTTTTT  binding result      binds
2  poly(A) with TT insertion (dsDNA) DNA 1: AAAAAAAAAAATTAAAAAAAAAA DNA 2: TTTTTTTTTTAATTTTTTTTTTT  binding result      binds

meta.source: paper PMC3656124
